The following binders are listed with their measured pKd values.
TARGET_DESC: T1, Fusion protein of extracellular domain of human TIGIT and His-tag (human TIGIT ECD-his) (human)
T1 chain: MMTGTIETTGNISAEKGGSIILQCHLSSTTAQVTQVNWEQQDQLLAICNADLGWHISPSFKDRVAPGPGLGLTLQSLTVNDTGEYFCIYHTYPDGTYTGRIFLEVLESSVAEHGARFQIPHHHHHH
METHOD_DESCRIPTION: BIAcore
pKd here is simply -log10 of the concentration when that concentration is written in mol/L.

Some binders with known pKd results, for comparison:
BINDER	pKd
TIGIT-006-H4L2 (antibody, V domains shown, Humanized anti-TIGIT antibody) VH: EVQLQESGPGLVKPSETLSLTCAVSGYSMTSDYWNWIRQPPGKKLEWMGYISYSGRTYYNPSLKSRITISRDTSKNQFSLKLSSVTAADTAVYYCARGDYSNYGGAMYDWGQGTTVTVSS VL: DIVMTQTPLSLSVTPGQPASISCRASQGVSTTIAWYQQKPGQSPKLLIYSASYRYTGVPDRFSGSGSGTDFTLKISRVEAEDVGVYYCQQYYSSPFTFGGGTKVEIK	9.18
TIGIT-070-H3L2 (antibody, V domains shown, Humanized anti-TIGIT antibody) VH: EVQLVQSGAEVKKPGASVKVSCKASGYTFTNYYMHWVRQAPGQGLEWMGRIDPDSGGSKYNEKFKSRVTITVDKLSSTAYMELSSLRSEDTAVYYCAREGHYGFYSDYWGQGTTVTVSS VL: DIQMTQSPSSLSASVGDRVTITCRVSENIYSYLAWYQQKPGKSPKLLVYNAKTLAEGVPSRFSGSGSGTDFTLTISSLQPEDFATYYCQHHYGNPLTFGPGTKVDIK	9.89

Let us examine a further case.
query: Item under review: TIGIT-005-H2L1b (antibody, V domains shown, Humanized anti-TIGIT antibody with NG-site mutation in VL) VH: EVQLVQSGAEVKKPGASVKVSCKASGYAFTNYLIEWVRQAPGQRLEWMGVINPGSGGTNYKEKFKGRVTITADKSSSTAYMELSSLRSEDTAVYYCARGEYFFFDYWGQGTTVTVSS VL: DIVMTQSPDSLAVSLGERATINCKASQHVSTGVAWYQHKPGQSPKLLIYSASYRYTGVPDRFSGSGSGTDFTLTISSLQAEDVAVYYCQQHYNTPHTFGGGTKVEIK . Reported pKd?
result: 9.13

src = patent US20240343803A1
